Values from paper PMC11819603

The entries below are paired with their reported hypusination signal, Mean (quantification from Figure 5A).
Target: DHPS (Homo sapiens)
Construct: host or cells: E. coli BL21 (DE3)
Sequence (P49366 whole entry): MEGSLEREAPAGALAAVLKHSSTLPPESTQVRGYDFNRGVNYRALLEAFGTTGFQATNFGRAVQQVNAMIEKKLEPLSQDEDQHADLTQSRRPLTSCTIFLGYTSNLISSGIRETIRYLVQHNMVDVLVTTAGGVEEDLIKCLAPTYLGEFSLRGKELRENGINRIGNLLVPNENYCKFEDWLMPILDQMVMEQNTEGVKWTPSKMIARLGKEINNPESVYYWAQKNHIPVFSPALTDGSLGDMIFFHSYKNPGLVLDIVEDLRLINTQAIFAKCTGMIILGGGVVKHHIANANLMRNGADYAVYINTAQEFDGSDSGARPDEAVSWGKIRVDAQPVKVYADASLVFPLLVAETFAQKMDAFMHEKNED
Experiment: Hyp'Assay: cell-free eIF5A hypusination in 96-well plates (recombinant eIF5A, DHPS, DOHH; anti-hypusine antibody Hpu24), substance present in the DHPS step
Format: biochemical
Conditions: concentration 1000 (no unit on page; Fig 5A 0 to 1 mM); 5 μM spermidine; control 98,5
Method: The principle of the Hyp’Assay (Fig 2A) is to perform eIF5A hypusination reaction in 96-well plates, allow eIF5A to adsorb to the plate, incubate with an anti-hypusine antibody and a secondary antibody conjugated to HRP and reveal hypusination using TMB as a substrate. […] Then 10 μL containing 1 μg of DOHH with 10 μM Fe^2+ (H8FeN2O8S2^. 6H2O) were added. After 1 h proteins were analyzed by Western Blot using antibodies toward DHPS, DOHH, Hypusine, and eIF5A. […]

# example entries with known answers
molecule="N=C(N)NCCCCCCO [compound 2, 6-hydroxyhexylguanidine]" value_observed=44,6
molecule="N=C(N)NCCCCCCCO [compound 3, 7-hydroxyheptylguanidine]" value_observed=58,2

According to the records, this molecule N=C(N)NCCCCCCCCO [compound 4, 8-hydroxyoctylguanidine] displays hypusination signal, Mean (quantification from Figure 5A) of 64,0

According to the records, this molecule N=C(N)NCCCCO [compound 1, 4-hydroxybutylguanidine] displays hypusination signal, Mean (quantification from Figure 5A) of 55,2

###

Molecular target: DOHH (Homo sapiens)
Construct: pelB leader (N); host or cells: E. coli BL21 (DE3)
Sequence (Q9BU89 whole entry): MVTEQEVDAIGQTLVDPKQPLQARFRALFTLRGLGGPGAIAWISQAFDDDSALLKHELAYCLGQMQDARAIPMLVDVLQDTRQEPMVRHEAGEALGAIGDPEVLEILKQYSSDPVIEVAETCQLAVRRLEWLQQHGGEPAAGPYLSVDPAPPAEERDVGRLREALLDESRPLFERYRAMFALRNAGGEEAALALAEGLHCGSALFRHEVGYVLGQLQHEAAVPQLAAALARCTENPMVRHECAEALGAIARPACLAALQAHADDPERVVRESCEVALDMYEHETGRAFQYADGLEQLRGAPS
Assay: Hyp'Assay, substance added after the deoxyhypusination reaction (DOHH step)
Type: biochemical
Settings: concentration 1 (no unit on page; Fig 3C dose-response 0 to 100 μM); control 100,0
The entries below are paired with their reported hypusination signal, Mean (quantification from Figure 3C).

# example entries with known answers
compound=Cc1cc(C2CCCCC2)n(O)c(=O)c1 value_observed=97,78
compound=CC(=O)N(O)CCCCCNC(=O)CCC(=O)N(O)CCCCCNC(=O)CCC(=O)N(O)CCCCCN value_observed=28,29
compound=NCCCCNCCCN value_observed=84,83
compound=NCCCNCCCCNCCCN value_observed=69,38

Attention now turns to another entry.
According to the records, this compound Nc1nc(=O)c2nc(CNc3ccc(C(=O)N[C@@H](CCC(=O)O)C(=O)O)cc3)cnc2[nH]1 [Folate, folic acid] displays hypusination signal, Mean (quantification from Figure 3C) of 56,38

###

The entries below are paired with their reported hypusination signal, Mean (quantification from Figure 3C).
Molecular target: DOHH (Homo sapiens)
Construct: pelB leader (N); host or cells: E. coli BL21 (DE3)
Test: Hyp'Assay, substance added after the deoxyhypusination reaction (DOHH step)
Format: biochemical
Settings: concentration 100 (no unit on page; Fig 3C dose-response 0 to 100 μM); control 100,0

compound="Nc1nc(=O)c2nc(CNc3ccc(C(=O)N[C@@H](CCC(=O)O)C(=O)O)cc3)cnc2[nH]1 [Folate, folic acid]" value_observed=65,33
compound=Cc1cc(C2CCCCC2)n(O)c(=O)c1 value_observed=55,02

According to the records, this compound NCCCNCCCCNCCCN displays hypusination signal, Mean (quantification from Figure 3C) of 54,32

According to the records, this compound CC(=O)N(O)CCCCCNC(=O)CCC(=O)N(O)CCCCCNC(=O)CCC(=O)N(O)CCCCCN displays hypusination signal, Mean (quantification from Figure 3C) of 34,21
